Entry source: patent US5216124A

biological target: μ opioid receptors (Rattus norvegicus, UniProt P33535)
Sequence (P33535 whole entry): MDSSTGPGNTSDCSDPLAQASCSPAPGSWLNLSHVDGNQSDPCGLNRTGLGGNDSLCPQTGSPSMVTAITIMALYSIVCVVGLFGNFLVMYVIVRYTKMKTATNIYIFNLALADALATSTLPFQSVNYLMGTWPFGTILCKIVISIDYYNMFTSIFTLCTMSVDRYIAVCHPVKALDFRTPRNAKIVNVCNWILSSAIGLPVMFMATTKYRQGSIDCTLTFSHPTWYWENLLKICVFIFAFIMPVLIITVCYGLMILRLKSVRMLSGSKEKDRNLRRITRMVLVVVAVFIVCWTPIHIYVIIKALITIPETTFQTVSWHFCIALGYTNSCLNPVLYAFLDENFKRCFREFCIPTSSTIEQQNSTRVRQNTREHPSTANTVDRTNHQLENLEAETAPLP
Positions of bridges follow the written chain, without caps; N, C: chain ends. Non-standard residues stand in square brackets, D forms with d. Residues, ends and D or L forms follow the SMILES beside them. Dmt = Cc1cc(O)cc(C)c1C[C@H](N)C(=O)O; dPen = CC(C)(S)[C@@H](N)C(=O)O
property-name: IC50 (nM)
Numeric answer only, unit nM assumed.

Quick one: IC50 of Cc1cc(O)cc(C)c1C[C@H](N)C(=O)N[C@@H]1CSSC(C)(C)[C@H](C(=O)O)NC(=O)[C@H](Cc2ccccc2)NC1=O [Example 4] (H-[Dmt][dC]F[dPen]-OH; disulfide 2-4) ?
5.4

###

target: δ opioid receptors (Rattus norvegicus); test: Opiate Binding Assay, displacement of 3[H]-DSLET; conditions: ratio of mean IC50 μ to δ; above 1.0 = more specific for δ
Sequence (P33533 whole entry): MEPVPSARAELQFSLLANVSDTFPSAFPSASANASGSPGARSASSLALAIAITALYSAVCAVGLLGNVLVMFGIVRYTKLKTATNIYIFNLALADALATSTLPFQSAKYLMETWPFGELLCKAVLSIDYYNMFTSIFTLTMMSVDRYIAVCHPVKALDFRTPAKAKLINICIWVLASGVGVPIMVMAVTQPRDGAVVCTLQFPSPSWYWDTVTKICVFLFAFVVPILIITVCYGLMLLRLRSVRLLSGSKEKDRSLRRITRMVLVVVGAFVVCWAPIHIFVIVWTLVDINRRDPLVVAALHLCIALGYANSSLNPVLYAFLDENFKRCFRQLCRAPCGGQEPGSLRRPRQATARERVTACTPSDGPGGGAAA
Structures can show the parent of a compound that is named as a salt. Positions of bridges follow the written chain, without caps; N, C: chain ends. Non-standard residues stand in square brackets, D forms with d. Residues, ends and D or L forms follow the SMILES beside them. Dmt = Cc1cc(O)cc(C)c1C[C@H](N)C(=O)O; NMeCha = CN[C@@H](CC1CCCCC1)C(=O)O; Cha = N[C@@H](CC1CCCCC1)C(=O)O; dPen = CC(C)(S)[C@@H](N)C(=O)O
Use 6 as the dividing line for Mean IC50 Value μ/δ Ratio, with the line itself on the Met side and lower values as Not met.

Reported Mean IC50 Value μ/δ Ratio reaches at least 6 for COC(=O)[C@@H]1NC(=O)[C@H](Cc2ccccc2)NC(=O)[C@H](NC(=O)[C@@H](N)Cc2c(C)cc(O)cc2C)CSSC1(C)C [Example 25, monohydrochloride] (H-[Dmt][dC]F[dPen]-OMe; disulfide 2-4) ?
Not met

Reported Mean IC50 Value μ/δ Ratio reaches at least 6 for COC(=O)[C@@H]1NC(=O)[C@H](CC2CCCCC2)N(C)C(=O)[C@H](NC(=O)[C@@H](N)Cc2c(C)cc(O)cc2C)CSSC1(C)C [Example 53, monohydrochloride] (H-[Dmt][dC][NMeCha][dPen]-OMe; disulfide 2-4) ?
Met

Reported Mean IC50 Value μ/δ Ratio reaches at least 6 for COC(=O)[C@@H]1NC(=O)[C@H](CC2CCCCC2)NC(=O)[C@H](NC(=O)[C@@H](N)Cc2c(C)cc(O)cc2C)CSSC1(C)C [Example 46, monohydrochloride] (H-[Dmt][dC][Cha][dPen]-OMe; disulfide 2-4) ?
Not met

Reported Mean IC50 Value μ/δ Ratio reaches at least 6 for Cc1cc(O)c(C)c(C)c1CC(N)C(=O)N[C@@H]1CSSC(C)(C)[C@H](C(=O)O)NC(=O)[C@H](Cc2ccccc2)NC1=O (single isomer, unassigned) [Example 82 (Diastereomer B), monohydrochloride] ?
Met

###

tested on: CD Charles River mice; assay: Writhing Assay (PBQ-induced writhing); format: in vivo, mouse; details: 10 mg/kg s.c., PBQ i.p. 25 min after dosing
Structures can show the parent of a compound that is named as a salt. Positions of bridges follow the written chain, without caps; N, C: chain ends. Non-standard residues stand in square brackets, D forms with d. Residues, ends and D or L forms follow the SMILES beside them. Phe(4-F) = N[C@@H](Cc1ccc(F)cc1)C(=O)O; Dmt = Cc1cc(O)cc(C)c1C[C@H](N)C(=O)O; NMeCha = CN[C@@H](CC1CCCCC1)C(=O)O; NMeF = CN[C@@H](Cc1ccccc1)C(=O)O; Cha = N[C@@H](CC1CCCCC1)C(=O)O; dPen = CC(C)(S)[C@@H](N)C(=O)O
For each entry below, report its number of mice out of ten in which peptide was active, Subcutaneous value.

What reported number of mice out of ten in which peptide was active, Subcutaneous corresponds to COC(=O)[C@@H]1NC(=O)[C@H](Cc2ccc(F)cc2)NC(=O)[C@H](NC(=O)[C@@H](N)Cc2c(C)cc(O)cc2C)CSSC1(C)C [Example 67, monohydrochloride] (H-[Dmt][dC][Phe(4-F)][dPen]-OMe; disulfide 2-4) on CD Charles River mice?
2/10

What reported number of mice out of ten in which peptide was active, Subcutaneous corresponds to COC(=O)[C@@H]1NC(=O)[C@H](Cc2ccccc2)NC(=O)C(NC(=O)[C@@H](N)Cc2c(C)cc(O)cc2C)CCSSC1(C)C (single isomer, unassigned) [Example 72, monohydrochloride] on CD Charles River mice?
6/10

What reported number of mice out of ten in which peptide was active, Subcutaneous corresponds to COC(=O)[C@@H]1NC(=O)[C@H](CC2CCCCC2)N(C)C(=O)[C@H](NC(=O)[C@@H](N)Cc2c(C)cc(O)cc2C)CSSC1(C)C [Example 53, monohydrochloride] (H-[Dmt][dC][NMeCha][dPen]-OMe; disulfide 2-4) on CD Charles River mice?
3/10

What reported number of mice out of ten in which peptide was active, Subcutaneous corresponds to COC(=O)[C@@H]1NC(=O)[C@H](Cc2ccccc2)NC(=O)C(NC(=O)[C@@H](N)Cc2c(C)cc(O)cc2C)CCSSC1(C)C (single isomer, unassigned) [Example 73, monohydrochloride] on CD Charles River mice?
6/10

What reported number of mice out of ten in which peptide was active, Subcutaneous corresponds to COC(=O)[C@@H]1NC(=O)[C@H](Cc2ccccc2)N(C)C(=O)[C@H](NC(=O)[C@@H](N)Cc2c(C)cc(O)cc2C)CSSC1(C)C [Example 39, monohydrochloride] (H-[Dmt][dC][NMeF][dPen]-OMe; disulfide 2-4) on CD Charles River mice?
4/10

What reported number of mice out of ten in which peptide was active, Subcutaneous corresponds to COC(=O)[C@@H]1NC(=O)[C@H](CC2CCCCC2)NC(=O)[C@H](NC(=O)[C@@H](N)Cc2c(C)cc(O)cc2C)CSSC1(C)C [Example 46, monohydrochloride] (H-[Dmt][dC][Cha][dPen]-OMe; disulfide 2-4) on CD Charles River mice?
5/10
